Numbers sourced from ChEMBL document CHEMBL4513216.

test: Toxicity liver stage against HepG2, at 10uM; format: cell-based; design: test concentration 10 uM, cell line HepG2-A16-CD81EGFP; conditions: human, HepG2-A16-CD81EGFP cells; read-out: INHIBITION
parameter measured: cytotoxicity at 10 µM (%)
Express the result in % but write the number alone.

Kindly note the recorded cytotoxicity at 10 µM for CCc1nc2c(N3CCC4(CC3)CC(=O)N(CC)C4)ncnc2o1 , which is -3.2

The value of cytotoxicity at 10 µM measured for the molecule CCN1CCN2CCCN(S(=O)(=O)c3cccc(F)c3)C2C1=O (configuration not stated) turned out to be 5.18

cytotoxicity at 10 µM measured on N#Cc1ccsc1C(=O)N1CCCN(Cc2cscn2)CC1 = 3.48

// CCc1nnc2n1CCN(C(=O)c1ccc3c(c1)nnn3C)C2 : cytotoxicity at 10 µM value = -4.68

The recorded cytotoxicity at 10 µM for CN(C)C(=O)N1CCN(Cc2noc(Cc3ccccc3)n2)CC1 is -8.8

Noted for CCCN(CCN(C)C)C(=O)Cc1cn2ccsc2n1 : its cytotoxicity at 10 µM reads 0.27

cytotoxicity at 10 µM reading for Cc1cc2ncn(C(=O)N3CCCC3)c2cc1C : -6.01

# cytotoxicity at 10 µM (molecule: CN1C(=O)CCCC12CCCN(C(=O)c1ccoc1)C2 (configuration not stated) ) is -4.04

Field cytotoxicity at 10 µM (entry CO[C@H]1CCN(c2ncccn2)[C@H]1Cc1ccccc1 ) reads -12.9

Please fill in: cytotoxicity at 10 µM reported for CC(C)(C)c1cc(C[C@H]2CNCC[C@H]2CC(=O)N2CCCCC2)no1 = -1.91

cytotoxicity at 10 µM reading for O=C(CCc1cc2n(n1)CCCN(C(=O)c1cccnc1)C2)NC1CC1 : -7.38

Memo: O=C(CCCn1cncn1)N1CCCCC1c1nccs1 (configuration not stated) , reported cytotoxicity at 10 µM: 8.6

----------
assay: Toxicity liver stage against HepG2, at 10uM; type: cell-based; design: test concentration 10 uM, cell line HepG2-A16-CD81EGFP; conditions: human, HepG2-A16-CD81EGFP cells; read-out: INHIBITION
parameter measured: cytotoxicity at 10 µM (%)
The response must be a number in % with no trailing unit.

Field cytotoxicity at 10 µM (entry CC(C)CN(CC(=O)O)C(=O)c1ccc(F)cc1 ) reads -2.83

Per the records, this compound ( CCOCC(O)CN1CCN(C(=O)c2cccc(F)c2)CC1 (stereo unspecified) ) has cytotoxicity at 10 µM equal to -11.1

The recorded cytotoxicity at 10 µM for entry CC(C)(C)C(O)CN1CCN(Cc2cccc(C#N)c2)CC1 (stereo unspecified) equals 3.7

// Cc1cc(C)cc(OCC(=O)N2CCCN(CC(N)=O)CC2)c1 : cytotoxicity at 10 µM value = 0.821

Reported cytotoxicity at 10 µM ( Cc1nc(C2CCCN2C(=O)CCOCc2ccccc2)no1 (stereo unspecified) ) = -2.4

According to the records, this compound Cc1ccsc1C(=O)N1CC(C(=O)NC(C)C)C2(CCOCC2)C1 (stereo unspecified) displays cytotoxicity at 10 µM of -1.49

----------
test: Toxicity liver stage against HepG2, at 10uM; type: cell-based; design: test concentration 10 uM, cell line HepG2-A16-CD81EGFP; details: human, HepG2-A16-CD81EGFP cells; read-out: INHIBITION
parameter measured: cytotoxicity at 10 µM (%)
Note: unit % is implicit; provide only the numeric part.

# molecule Cc1ccc(-c2[nH][nH]c(=O)c2CCN)cc1 ; its cytotoxicity at 10 µM = 6.03

cytotoxicity at 10 µM reported for this molecule Clc1cccc(-c2nc(CNC3CCc4ncnn4C3)co2)c1 (stereo not drawn) : 2.56

Just so you know, measured cytotoxicity at 10 µM for CC(O)CN(C(=O)NC1CC1)C(C)C (stereo not drawn) came out at 13.1

Measured cytotoxicity at 10 µM of Cn1cc(CNc2ccc(F)c(N3CCCS3(=O)=O)c2)cn1 : -12.8

So for CC(=O)N1CCC(NC(=O)NCc2ncc(-c3ccccc3)o2)CC1 , the logged cytotoxicity at 10 µM turned out to be -44.7

cytotoxicity at 10 µM for N#CCCCOc1cccc(CN2CCCC2c2ccc[nH]2)c1 (stereo not drawn) is -14.5

// CC1CN(C)c2ccccc2CN1C(=O)c1cc[nH]c(=O)c1 (stereo not drawn) : cytotoxicity at 10 µM value = 4.96

Record OCC(CO)N1CCC(c2nccnc2Nc2cnccn2)CC1 . Reported cytotoxicity at 10 µM: -10.5

response.value for Cc1nc(C)n(CC2CCCCN2Cc2nnc(C3CC3)o2)n1 (stereo not drawn) (field: cytotoxicity at 10 µM) = -10.7

GET /value?item= COCCN1C(=O)CCC12CCC(NCc1cccnc1OC)CC2 (stereo not drawn) &field=cytotoxicity at 10 µM returns 8.64

cytotoxicity at 10 µM for O=C(c1ccco1)N1CCC2(CCCN(c3ncccn3)C2)C1 (stereo not drawn) is -105

Reported cytotoxicity at 10 µM for COC(=O)C1CN(Cc2ccc(-c3ccncc3)cc2F)C[C@@H](C)O1 (stereo partly drawn) was 1.63

Lab note: COCCS(=O)(=O)Nc1ccc(-n2cncn2)c(F)c1 gave cytotoxicity at 10 µM of -12.2

Input O=C(c1ccccc1F)N1CCN(c2ccc(-n3cccn3)nn2)CC1 . Output cytotoxicity at 10 µM: -18.3

For this molecule ( COC(=O)N1CCC(Oc2ccc(C(=O)NCCN(C)C)cc2Cl)CC1 ), measured cytotoxicity at 10 µM is -6.34

The recorded cytotoxicity at 10 µM for entry CCN1CCN(Cc2csc(C(C)C)n2)CC1 equals -5.78

# cytotoxicity at 10 µM (molecule: O=C(N[C@@H]1CCNC[C@H]1O)c1ccc(F)c(Cl)c1 ) is -11.1

Item: N#Cc1ccc(C(=O)N2CC[C@H]3[C@H]2CCN3CC2CCOCC2)cc1 | cytotoxicity at 10 µM: -5.19

So, CSc1nccc(N2C[C@@H](CN3CCCCC3)[C@@H](CO)C2)n1 ? Its cytotoxicity at 10 µM was -3.59

Item: Cc1nn(C)c2ncc(NC(=O)N3CCNC(=O)C3)cc12 | cytotoxicity at 10 µM: -5.81

The recorded cytotoxicity at 10 µM for N#CC1(NC(=O)COC(=O)Cc2cc(Cl)c3c(c2)OCCO3)CCCC1 is 0.935

Just so you know, measured cytotoxicity at 10 µM for Cc1cccc(Nc2ccc(C3CCCCN3)cn2)n1 (stereo not drawn) came out at -1.93

Data point: c1csc(-c2noc(C3CCCOC3)n2)c1 (stereo not drawn) ; cytotoxicity at 10 µM = 7.39

The molecule listed as CC(C)OCc1cccc(NC(=O)N(C)Cc2ncnn2C)c1 shows cytotoxicity at 10 µM equal to 4

According to the records, this molecule COc1cc(CNc2cc(-c3ccoc3C)nn2CCO)ccc1F displays cytotoxicity at 10 µM of -14.6

So, O=C(CCc1ccc2c(c1)OCO2)N1CCCCC1Cn1cccn1 (stereo not drawn) ? Its cytotoxicity at 10 µM was -17.2

For Cn1cc(CN2CCC[C@]3(C(=O)O)CN(c4ncccn4)C[C@@H]3C2)cn1 the molecule record lists cytotoxicity at 10 µM as 4.89

CC(C)c1cc(N2CCC3(CC2)CN(C)CCN3C)ncn1 has a reported cytotoxicity at 10 µM of -16.2

Data point: CCS(=O)(=O)NC[C@]12COC[C@H]1CN(Cc1ccsc1)C2 ; cytotoxicity at 10 µM = 6.37

According to the records, this molecule C[C@@H]1CN(Cc2cc(C3CCCCC3)no2)CC[C@]1(C)O displays cytotoxicity at 10 µM of -13.2

Looking up CC(=O)N1CCC(Oc2ccc(Cl)cn2)CC1 , I see its cytotoxicity at 10 µM listed as -19.5

Notebook: CC1(C)OCC(CNC(=O)c2cnn(-c3cccc(Cl)c3Cl)c2N)O1 (stereo not drawn) , cytotoxicity at 10 µM read as 1.93

The molecule identified as COc1ccc(CN(C)Cc2c(C)noc2C)c(Br)c1OC registered its cytotoxicity at 10 µM at -0.2

The molecule listed as Cc1cccc(N2CCC(N3CCC4(CN(C)C(=O)O4)C3)CC2)c1C (stereo not drawn) has a reported cytotoxicity at 10 µM of -11.8

Briefly, cytotoxicity at 10 µM measured for COCc1noc(CNc2nc(C3CCCC3)nc3c2CCNCC3)n1 : 0.0228

Noted for COc1cccc2c1OCC(CNC(=O)CCn1cnnn1)C2 (stereo not drawn) : its cytotoxicity at 10 µM reads -144

CCOc1cc(C(=O)O)cc(-c2ccccc2)c1OC yielded cytotoxicity at 10 µM of -9.88

cytotoxicity at 10 µM for COC(=O)c1cc(C(=O)N2CCC(C)CC2)n(-c2ccccc2)n1 is 0.103

Notebook: CCCn1cnnc1CNC1CCCC1 , cytotoxicity at 10 µM read as -2.27

Please fill in: cytotoxicity at 10 µM reported for COCCN1CCC(C(=O)N(C)Cc2c[nH]c3ccc(C)cc23)C1 (stereo not drawn) = -13.2

# cytotoxicity at 10 µM (molecule: CC(C)CC(NC(=O)c1cccc(F)c1F)C(=O)Nc1cc[nH]n1 (stereo not drawn) ) is -7.82

Field cytotoxicity at 10 µM (entry CNC(=O)[C@H]1C[C@H]2CN(Cc3ccccc3)C[C@@H]1O2 ) reads 8.84

Value of cytotoxicity at 10 µM reported for the molecule O=c1c(C(F)(F)F)cccn1Cc1nnc(-c2cccnc2)o1 is -2.93

Briefly, cytotoxicity at 10 µM measured for CC(C)c1nc(C2CCCN(C(=O)CCn3ccccc3=O)C2)no1 (stereo not drawn) : -18.4

The value of cytotoxicity at 10 µM measured for the molecule N#CCCN(C(=O)CN1CCCC1c1ccsc1)c1ccccc1F (stereo not drawn) turned out to be -5.8

The value of cytotoxicity at 10 µM measured for the molecule Cc1nc(CN2CCCC(N(C)Cc3cscn3)C2)no1 (stereo not drawn) turned out to be 16.8

Reported cytotoxicity at 10 µM of O=C(c1ccc(F)cc1)N1CCN2C[C@H](Oc3cccnc3)C[C@H]2C1 : 3.77

Query O[C@H]1[C@H](n2cc(CN3CCCC3)nn2)c2ccccc2C12CCNCC2 yields cytotoxicity at 10 µM of -3.76
